Numbers sourced from ChEMBL document CHEMBL1123452.

# Species: Rattus norvegicus
# measurement-notes: Percent decrease in serum cholesterol (Cho) after 7 days at 0.05 percent in the diet of SD male rats in comparison to control animals
# Format: functional
Reduction for assorted molecules
Just the number please, in %, no unit attached.

COC(=O)c1nc(-c2ccc(F)cc2)oc1-c1ccsc1: 5
O=C(O)Cc1nc(-c2ccccc2)oc1-c1ccccc1: 6
CCOC(=O)Cc1nc(-c2ccc(Cl)c(Cl)c2)oc1-c1ccsc1: 14
O=C(O)Cc1nc(-c2ccsc2)oc1-c1ccc(F)cc1: 13
CCOC(=O)Cc1nc(-c2ccc(C)cc2)oc1-c1cccs1: 9

## Task GET /values?readout=Reduction&item= CCOC(=O)C(C)c1nc(-c2ccc(F)cc2)oc1-c1ccsc1 (stereo not drawn)
## Result 6

## Task Query (molecule): O=C(OCCc1nc(-c2ccc(F)cc2)oc1-c1ccsc1)c1cccnc1 ; field requested: Reduction
## Result -2

## Task So what's the measured Reduction for this one? CCCCCOC(=O)Cc1nc(-c2ccc(F)cc2)oc1-c1ccsc1
## Result 13
